Tested on: Chordin-like protein 2 (CHRDL2)
Assay: CHRDL2 small-molecule binders, primary screen, biochemical, small-molecule microarray, 635 nm fluorescence (AID 1126);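 also: printed compound slides probed with Chrdl2 protein at 4 µg/mL for 1 h at 4 C; score merges 667 nm emission intensity with signal to noise over three replicate slides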
Conditions: small-molecule microarray binding, fluorescence 635 nm; higher = more signal
Binary classification by composite z-score, with 0.2 as an inclusive lower bound for MET; all other cases are NOT MET.

Please review the entries below; each comes with its answer.
STRUCTURE_SMILES_STRING	ASSIGNED_CATEGORY
O=C1O[C@@H](c2ccccc2)[C@@H](c2ccccc2)N2[C@@H](c3ccc(O)cc3)[C@]3(C(=O)Nc4ccc(C#CC5(O)CCCCCC5)cc43)[C@@H](C(=O)NC[C@H](O)c3ccccc3)[C@H]12	NOT MET
C=C(COC)/C(=C/C[C@H](OC(C)=O)c1ccc(OCCO)cc1)c1cc(C(=O)OC)ccc1OC	MET

Now for a further compound.
Hello, I need to know if CC(C)C[C@@H]1NC(=O)[C@@H]2C[C@H](C(=O)NCCCCCN)[C@H](c3ccc(O)cc3)N2C1=O has measured composite z-score not below 0.2. Thanks! MET

----------
Assay: basal 3T3-L1 adipocyte mitochondrial potential changes, profiling panel, cell-based, JC-1 fluorescence, 3T3-L1 adipocytes, 24 h, 100 nL compound (AID 1168); also: test concentration not given here
Settings: JC-1 mitochondrial fluorescence, higher = more signal, called active from +8 up or from −8 down
Binary classification by z-score, with -0.5 as an inclusive lower bound for TRUE; all other cases are FALSE.

Please review the entries below; each comes with its answer.
MOLECULE	ASSIGNED_CATEGORY
COC(=O)[C@@]1(Cc2ccc(OC)cc2)[C@H]2c3cc(C(=O)N(C)C)n(CCO)c3C[C@H]2CN1C(=O)c1ccccc1	FALSE
COc1ccc(C(O)C2C=CC3C(=O)N(c4ccccc4)C(=O)C3N2Nc2ccc([N+](=O)[O-])cc2)cc1 (centres undefined)	FALSE
O=C1NC(=O)C2C1C=CC(C(O)c1cccc3ccccc13)N2Nc1ccc(Cl)cc1Cl (centres undefined)	FALSE
COC(=O)[C@@]1(Cc2ccc(F)cc2)[C@H]2c3cc(C(=O)N4CCCC4)n(CCc4ccc(O)c(O)c4)c3C[C@H]2CN1C(=O)c1ccccc1	TRUE
Cc1ccccc1C(O)C1C=CC2C(=O)N(C)C(=O)C2N1N(c1ccccc1)c1ccccc1 (centres undefined)	TRUE

Hello, I need to know if Cc1ccc(S[C@]2(C(=O)O)CC(=O)N(Cc3ccccc3Cl)[C@@H]2c2ccc(CO)cc2I)cc1 has measured z-score not below -0.5. Thanks! FALSE

Could you do the same for CCOC(=O)C[C@H]1[C@H](OC(=O)c2cc3ccccc3oc2=O)[C@@H](NC(=O)Cc2ccc(OC)cc2)c2cc(OCCCO)ccc2N1C(=O)c1ccc2ccccc2n1 , please? TRUE

Could you do the same for CCOC(=O)C[C@H]1[C@H](OC(=O)c2ccccc2-c2ccccc2)[C@@H](NC(=O)C2CCCCC2)c2cc(OCCCO)ccc2N1C(=O)Cc1ccc(OC)cc1 , please? TRUE

Could you do the same for CO[C@H]1O[C@H](CO)[C@@H](OC(=O)Nc2ccccc2-c2ccccc2)[C@H](OC(=O)Nc2ccc3c(c2)OCO3)[C@H]1OC(=O)Nc1ccc2c(c1)OCO2 , please? TRUE

Could you do the same for CCOC(=O)C1=CC[C@@H](c2ccc(OCc3ccccc3)c(OC)c2)N(S(=O)(=O)c2ccc(C)cc2)[C@H]1c1ccc(SC)cc1 , please? FALSE

Could you do the same for CC=CC(O)C1C=CC2C(=O)N(c3ccccc3)C(=O)C2N1Nc1ccccc1F (centres undefined) , please? FALSE

Could you do the same for CCOC(=O)C1=C[C@@H](c2ccccc2)N(S(=O)(=O)c2ccc(C)cc2)[C@H]1c1ccccc1Cl , please? TRUE

Could you do the same for COC(=O)[C@@]1(Cc2ccc(F)cc2)[C@H]2c3cc(C(=O)N(C)C)n(Cc4cc(F)cc5c4OCOC5)c3C[C@H]2CN1C(=O)c1ccccc1 , please? FALSE

Could you do the same for O=C1O[C@H](c2ccccc2)[C@H](c2ccccc2)N2[C@H]1[C@@H](C(=O)N1CCN(c3ncccn3)CC1)[C@]1(C(=O)Nc3ccc(C#CC4(O)CCCCCC4)cc31)[C@H]2c1ccc(OCCO)cc1 , please? TRUE

----------
Molecular target: Left-right determination factor 2 (Homo sapiens)
Experiment: LEFTY2 binders on small-molecule microarrays, primary screen, biochemical, small-molecule microarray, 635 nm fluorescence scan (AID 1110)
Conditions: LEFTY2 binding, higher = more signal
Task for the reader: assign each of the following compounds its reported composite z-score.
Numbers only.

Look over these answered cases.
COMPOUND	composite z-score
CC(CO)N1C(=O)[C@@H]2[C@H]3C(=O)OCC=C[C@H]3OC23C=CCN(CCN2CCOCC2)C(=O)[C@@H]13 (some centres undefined)	-0.396
CN(C)CCCNC(=O)[C@@H]1c2ccccc2C(=O)N(Cc2ccccc2Cl)[C@H]1c1ccc(CO)cc1	-0.505
C=C(/C(=C/C[C@@H](OC(C)=O)c1cccc(OCCO)c1)c1cc(C(=O)OC)ccc1OC)C(C)C	0.256
[N-]=[N+]=Nc1ccccc1C[C@]1(C(=O)N2CCOCC2)N=C(c2ccc(OCCCO)cc2)O[C@H]1c1ccccc1	0.444
COc1cc(OC)c(C(O)C2C=CC3C(=O)N(C)C(=O)C3N2NC(=O)OC(C)(C)C)cc1Br (centres undefined)	0.469

Quick request: composite z-score for each listed item, please.
1. COC(=O)c1c(CC[C@@H](CO)NC(=O)N[C@H](Cn2cc(C3(O)CCCCC3)nn2)C(C)C)oc(C(C)=O)c1C(=O)OC
2. C=C(C(=O)CC[C@@H](OC(C)=O)c1ccc(CO)o1)C(C)C
3. CCOC(=O)C[C@H]1[C@H](OC(=O)c2ccccc2-c2ccccc2)[C@@H](NC(=O)c2ccc(-c3ccccc3)cc2)c2cc(OCCCO)ccc2N1C(=O)c1ccc2ccccc2n1
4. COCCOC(=O)N1C(=O)[C@@]2(c3cc(C#CC4=CCCCC4)ccc31)[C@H](c1ccc(OCCO)cc1)N1[C@H](c3ccccc3)[C@H](c3ccccc3)OC(=O)[C@H]1[C@@H]2C(=O)NC[C@H](O)c1ccccc1
5. COc1ccc([Si](C)(C)[C@@H]2[C@@H](CC(=O)N3Cc4ccccc4C[C@H]3CO)O[C@]3(C(=O)N(Cc4cccc(N5C(=O)c6cccc7cccc5c67)c4)c4ccccc43)[C@H]2C)cc1
6. COC(=O)[C@@]1(Cc2ccc(OC)cc2)[C@H]2c3cc(C(=O)N(C)C)n(CCO)c3C[C@H]2CN1C(=O)c1ccccc1
7. COc1ccc([Si](C)(C)[C@@H]2[C@@H](CC(=O)N(CCO)Cc3ccccc3)O[C@]3(C(=O)N(Cc4cccc(N5C(=O)c6cccc7cccc5c67)c4)c4ccccc43)[C@H]2C)cc1

[0.724, 0.13, 0.465, 0.958, 0.98, -0.511, 0.882]

Quick request: composite z-score for each listed item, please.
1. COC(=O)[C@@]1(Cc2ccc(F)cc2)[C@H]2c3cc(C(=O)N4CCCC4)n(CCN4CNCC4=O)c3C[C@H]2CN1C(=O)c1ccccc1
2. C=C[C@@H](OC)[C@H](OC(=O)Nc1ccc(SC)cc1)c1ccc(O)c(F)c1

-1
-0.374

----------
System: Sam68 (KHDRBS1)
Assay: Sam68 small-molecule binders, primary screen, biochemical, small-molecule microarray, 635 nm fluorescence (AID 1125);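 also: score merges 667 nm channel intensity with signal to noise over triplicate slides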
Conditions: small-molecule microarray binding, higher = more signal
RECORDED_METRIC: composite z-score
Answers are plain numbers.

Look over these answered cases.
COMPOUND	composite z-score
COCC1=C2[C@@H](CCc3ccccc3)OB(O)C[C@@H]2[C@@H]2C(=O)C=CC(=O)[C@@H]2C1	1.31
O[C@@H](Cc1ccccc1)[C@@H](/C=C/C1CC1)N(CC#Cc1ccccc1)Cc1cccc(Cl)c1	-0.117
COC(=O)C1=CC(CCCO)=CC(C2CC2)N(C)C=C1C(=O)OC (stereo not drawn)	0.0065
Cc1ccc(S[C@]2(C(=O)O)CC(=O)N(C3Cc4ccccc4C3)[C@@H]2c2ccc(CO)cc2)cc1	0.667
C=CCN1Cc2ccccc2[C@H]2OC(c3ccc(OCCCO)cc3)=N[C@@]2(CC=C)C1=O	1.31

Quick request: composite z-score for each listed item, please.
1. NC(=O)NCC#Cc1ccc2c(c1)[C@]1(C(=O)N2)[C@H](C(=O)NC[C@H](O)c2ccccc2)[C@H]2C(=O)O[C@H](c3ccccc3)[C@H](c3ccccc3)N2[C@@H]1c1ccc(OCCO)cc1
2. Cc1ccccc1C(O)C1C=CC2C(=O)N(C)C(=O)C2N1N(c1ccccc1)c1ccccc1 (stereo not drawn)

1. 1.01
2. -1.29

I'd like to know its composite z-score. The compound in question is CO[C@]12C=C(Br)[C@@H](C[C@@H]1c1cccc(C)c1)[C@@]1(CO1)C2=O 0.189

----------
System: Noggin (protein binding on small-molecule microarray)
Assay: Noggin binders on small-molecule microarray, primary screen, biochemical, 635/667 nm fluorescence (AID 1095);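 also: score merges 667 nm feature fluorescence with signal to noise over triplicate slides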
Conditions: 635 nm fluorescence, higher = more signal
Binary classification by composite z-score, with 0.7 as an inclusive lower bound for Met; all other cases are Not met.

Please review the entries below; each comes with its answer.
COMPOUND	ASSIGNED_CATEGORY
COc1ccc([Si](C)(C)[C@H]2[C@H](CCn3cc([C@H](O)c4ccccc4)nn3)O[C@@]3(C(=O)N(Cc4ccc(N5C(=O)c6cccc7cccc5c67)cc4)c4ccccc43)[C@@H]2C)cc1	Not met
C[C@H]1NC(=O)[C@@]23C(=O)N[C@@H](Cc4ccccc4)C2[C@H](C)[C@@]2(C)O[C@H]2C3/C=C/C/C=C\CNC(=O)[C@H](Cc2ccccc2)NC1=O (some centres not stated)	Met
O=C(NCCCCCNC(=O)/C(Cc1ccccc1)=N/O)OCc1ccccc1	Not met
CC(C)C(=C=CC[C@H](O)c1cccc(OCCO)c1)C[C@H](O)c1cc(Cl)cc(Cl)c1O	Not met
CC(C)N1CC=CC23O[C@@H]4C=CCOC(=O)[C@@H]4[C@H]2C(=O)N(CCCO)[C@@H]3C1=O (some centres not stated)	Met

Hello, I need to know if CN(C)CCCNC(=O)[C@@]1(C)c2ccccc2C(=O)N(Cc2ccccc2)[C@H]1c1ccc(CO)cc1 has measured composite z-score not below 0.7. Thanks! Not met

Could you do the same for COC(=O)[C@@]1(Cc2ccc(F)cc2)[C@H]2c3cc(C(=O)N(C)C)n(CCc4ccc(O)c(OC)c4)c3C[C@H]2CN1C(=O)c1ccccc1 , please? Not met
